test system: SK-OV-3 ovarian; assay: NCI-60 one-dose screen, 48 h (100 = growth as untreated, 0 = no growth, -100 = all killed); details: 10 µM unless noted
About 83,000 compounds went through this panel and 20% of them were active in at least one assay; those are over-represented in the sample as a whole.
// reported growth per item
Property measured: growth (%)

[[record]]
molecule = "O=C1Nc2ccc(Cl)cc2/C1=C\\c1c(-c2ccc(F)cc2)nc2ccccn12"
tested_system = "SK-OV-3 ovarian"
experimental_result = -52.1

[[record]]
molecule = "CCOC(=O)C(Cc1ccccc1)n1c(O)c(/C=N/c2ncc(Cc3ccc(Cl)cc3Cl)s2)sc1=S (centres undefined)"
tested_system = "SK-OV-3 ovarian"
experimental_result = 0.0373

[[record]]
molecule = "COc1ccc(CNc2c3ccccc3nc3ccccc23)cc1F"
tested_system = "SK-OV-3 ovarian"
experimental_result = 48.1

[[record]]
molecule = "CCN1C(=O)N(CC)C2C1NN=c1s/c(=C\\c3ccc(Br)cc3)c(=O)n12 (centres undefined)"
tested_system = "SK-OV-3 ovarian"
experimental_result = 16.1

[[record]]
molecule = "NC(=O)c1ccc[n+](Cc2ccccc2)c1"
tested_system = "SK-OV-3 ovarian"
experimental_result = 113

[[record]]
molecule = "COc1cc(NC(=O)CSc2nc3ccc(Cl)cc3c(=O)n2Cc2ccccc2)cc(OC)c1OC"
tested_system = "SK-OV-3 ovarian"
experimental_result = 72

[[record]]
molecule = "OC(CCCCCCCCC(O)CN1CCc2ccccc2C1)CN1CCc2ccccc2C1 (centres undefined)"
tested_system = "SK-OV-3 ovarian"
experimental_result = 105

[[record]]
molecule = "COc1cc(C2CC(c3ccccc3)=NN2C=O)ccc1Oc1ccnc2cc(Cl)ccc12 (centres undefined)"
tested_system = "SK-OV-3 ovarian"
experimental_result = 86.6

[[record]]
molecule = "O=C1OCC2=C1C(c1ccccc1)c1cc3c(cc1N2CCO)OCO3 (centres undefined)"
tested_system = "SK-OV-3 ovarian"
experimental_result = 6.79

[[record]]
molecule = "Cc1cc(-c2ccccc2)on1"
tested_system = "SK-OV-3 ovarian"
experimental_result = 93.1

[[record]]
molecule = "CN(C)CCCn1c(=O)c2cc([N+](=O)[O-])ccc2c2cnc3[nH]ccc3c21"
tested_system = "SK-OV-3 ovarian"
experimental_result = 63.8

[[record]]
molecule = "CCN(CC)CC(=O)Nc1c(C)ccc(N)c1C"
tested_system = "SK-OV-3 ovarian"
experimental_result = 96.7

[[record]]
molecule = "COc1cc2ncnc(Nc3ccc(S(=O)(=O)Nc4cc(C)on4)cc3)c2cc1OCCCN1CCN(c2ccc([N+](=O)[O-])cc2)CC1"
tested_system = "SK-OV-3 ovarian"
experimental_result = 99

[[record]]
molecule = "CCCCCCCC/C=C/CCCCCCCC1=NC(C)(C)CN1C(C)C"
tested_system = "SK-OV-3 ovarian"
experimental_result = 55.4


----------
system: PC-3 prostate; experiment: NCI-60 one-dose screen, 48 h (100 = growth as untreated, 0 = no growth, -100 = all killed); settings: 10 µM unless noted
The panel holds about 83,000 compounds, 20% with a hit somewhere; the sample as a whole holds those more often.
In plain terms, low growth, meaning strictly below 70%, gives Criterion met, and everything else gives Criterion not met.

[[record]]
smiles_text = "COc1ccc(-c2nc3ccccc3n3cccc23)cc1"
tested_system = "PC-3 prostate"
discrete_label = "Criterion not met"

[[record]]
smiles_text = "CC(=O)c1ccc(Br)c([N+](=O)[O-])c1"
tested_system = "PC-3 prostate"
discrete_label = "Criterion not met"

[[record]]
smiles_text = "COc1ccc(-c2cc(C(=O)Nc3ccc(Br)cc3)nc3[nH]c(=O)sc23)cc1"
tested_system = "PC-3 prostate"
discrete_label = "Criterion met"

[[record]]
smiles_text = "CCCCOc1nc2ccccc2cc1/C=C/c1cc(/C=C/c2cc3ccccc3nc2OCCCC)n(-c2ccccc2)n1"
tested_system = "PC-3 prostate"
discrete_label = "Criterion not met"

[[record]]
smiles_text = "COc1cccc(N2CCN(c3ncnc4cc[nH]c34)CC2)c1"
tested_system = "PC-3 prostate"
discrete_label = "Criterion met"

[[record]]
smiles_text = "COc1ccc(/C(C)=N/NC(=O)c2ccc(S(C)(=O)=O)cc2)cc1OC"
tested_system = "PC-3 prostate"
discrete_label = "Criterion not met"

[[record]]
smiles_text = "O=[N+]([O-])c1ccc(N/N=C/c2ccccc2O)nc1"
tested_system = "PC-3 prostate"
discrete_label = "Criterion met"

[[record]]
smiles_text = "CNC(=O)c1c(NC(=O)c2cccc(C(F)(F)F)c2)sc2c1CCC(=O)C2"
tested_system = "PC-3 prostate"
discrete_label = "Criterion met"


----------
test system: CAKI-1 renal; test: NCI-60 one-dose screen, 48 h; conditions: 10 µM unless noted
Compounds without any hit were thinned out: in the full panel of roughly 83,000, 20% have a hit. Active and inactive are the calls of the source. Rule for the calls: active = growth percent below 10; inactive = the rest.
Possible outcomes: active, inactive

[[record]]
compound = "CCNCCCn1c2c(c3ccc(Cl)cc3c1=O)C(=O)c1cc(OC)cnc1-2"
discrete_label = "inactive"

[[record]]
compound = "CC(C)c1ccc(-c2cnc3nonc3n2)cc1"
discrete_label = "inactive"

[[record]]
compound = "O=S1(=O)NCCCN1CCNc1nccc(-c2c(-c3cccc(O)c3)nc3sccn23)n1"
discrete_label = "inactive"

[[record]]
compound = "Cc1ccc2c(C)c3c(ccc4ccccc43)c[n+]2c1"
discrete_label = "inactive"

[[record]]
compound = "COc1cc2c(cc1OC)-c1cc(OC)c(OC)cc1C(CN(C)C)C2 (configuration not stated)"
discrete_label = "inactive"

[[record]]
compound = "CCOC(=O)CCN(CCC(=O)OCC)c1ccccc1"
discrete_label = "inactive"

[[record]]
compound = "COc1ccc([C@H]2c3[nH]c4ccccc4c3C[C@H]3C(=O)N(CCCCCCC(=O)NO)CC(=O)N23)cc1"
discrete_label = "inactive"

[[record]]
compound = "C=C(COC(C)=O)[C@H]1CC/C(C)=C/CC/C(C)=C/CC[C@@]2(C)O[C@H]2C1"
discrete_label = "inactive"

[[record]]
compound = "COc1ccccc1CNCCCN1C(=O)c2ccc3c4c(ccc(c24)C1=O)C(=O)N(CCCNCCCN)C3=O"
discrete_label = "inactive"

[[record]]
compound = "C[C@@H]1N=C(c2ccc3ccccc3c2)Nc2nc3ccccn3c2C1=O"
discrete_label = "inactive"

[[record]]
compound = "COC(=O)[C@@H](Cc1c[nH]c2ccccc12)NC(=O)/C=C/c1ccccc1"
discrete_label = "inactive"

[[record]]
compound = "C/C(=N\\Nc1ccc([N+](=O)[O-])cn1)c1ccc(N)cc1"
discrete_label = "inactive"

[[record]]
compound = "O=[N+]([O-])c1ccc(Sc2nc(Cl)nc(NC3CCCC3)n2)cc1"
discrete_label = "active"

[[record]]
compound = "N/C(=N\\OC(=O)c1ccccc1)C(Cc1ccccc1)C(=O)NOC(=O)c1ccccc1 (configuration not stated)"
discrete_label = "active"

[[record]]
compound = "COC(=O)CSc1ccc(Cl)cc1"
discrete_label = "inactive"

[[record]]
compound = "O=[N+]([O-])c1ccc(N/N=C\\c2ccc(O)cc2O)nc1"
discrete_label = "active"

[[record]]
compound = "c1ccc2oc(-c3cnc4nonc4n3)cc2c1"
discrete_label = "inactive"


----------
tested on: ACHN renal; assay: NCI-60 one-dose screen, 48 h; details: 10 µM unless noted
This is part of a sample that, as a whole, favours compounds with a hit. Of some 83,000 tested, about 20% had one in any assay. The source made the active and inactive calls. The calls were made as follows: active = growth percent below 10; inactive = the rest.
Possible outcomes: true (1) = active, false (0) = inactive

[[record]]
compound = "Clc1ccc(-c2nc(-c3cccs3)no2)cc1"
discrete_label = "false (0)"

[[record]]
compound = "COC1(OC)C2(Cl)CCC1(Cl)C(Cl)=C2Cl"
discrete_label = "false (0)"

[[record]]
compound = "CN(C)N1C(=O)c2c(Cl)c(Cl)c(Cl)c(Cl)c2C1=O"
discrete_label = "false (0)"

[[record]]
compound = "CCCCOC(=O)c1cc(O)c(O)c(O)c1"
discrete_label = "false (0)"

[[record]]
compound = "O=C(N/N=C/c1ccc([N+](=O)[O-])cc1)c1ccccc1Nc1ccnc(C(F)(F)F)c1"
discrete_label = "false (0)"

[[record]]
compound = "C[N+](C)(C)CC(=O)N/N=C\\c1ccco1"
discrete_label = "false (0)"

[[record]]
compound = "COc1cccc(NC(=O)OC(C)C)c1"
discrete_label = "false (0)"

[[record]]
compound = "CC(C)N(C(=S)SSC(=S)N(C(C)C)C(C)C)C(C)C"
discrete_label = "false (0)"

[[record]]
compound = "N/C(=N\\O)c1ncc(-c2ccc(C(F)(F)F)cc2)c(NC2CCCCCC2)n1"
discrete_label = "true (1)"

[[record]]
compound = "O=[N+]([O-])c1ccc(N=Nc2c(NNc3ccc([N+](=O)[O-])cn3)cc(S(=O)(=O)O)c3ccccc23)nc1"
discrete_label = "false (0)"

[[record]]
compound = "COc1cccc(C2C(C#N)=C(N)Oc3cc4c(cc32)OCO4)c1 (centres undefined)"
discrete_label = "false (0)"

[[record]]
compound = "O=C(CCl)Nc1ccc2c(c1)C(=O)c1ccccc1C2=O"
discrete_label = "true (1)"

[[record]]
compound = "COc1cc(C2CC(c3ccccc3)=NN2C=O)ccc1Oc1ccnc2cc(Cl)ccc12 (centres undefined)"
discrete_label = "false (0)"

[[record]]
compound = "Clc1cc2nc(-c3ccccc3)c(-c3ccccc3)nc2cc1Cl"
discrete_label = "false (0)"

[[record]]
compound = "O=C(/C=C/c1cn(-c2ccccc2)nc1-c1ccccc1)OCc1cn(-c2cccc([N+](=O)[O-])c2)nn1"
discrete_label = "false (0)"

[[record]]
compound = "CCCCCCCCN=C(NCCCCCCCC)SCc1cccc2ccccc12"
discrete_label = "true (1)"

[[record]]
compound = "CC(=O)Oc1ccccc1C(=O)Nc1ncc([N+](=O)[O-])s1"
discrete_label = "false (0)"

[[record]]
compound = "CCN1CCN(Cc2ccc(NC(=O)Nc3ccc(-n4ccc5c(NC(=O)c6ccccc6)nccc54)cc3)cc2C(F)(F)F)CC1"
discrete_label = "true (1)"

[[record]]
compound = "CCN1C(=O)N(CC)C2C1NC(=O)N2/N=C/C=C/c1ccccc1 (centres undefined)"
discrete_label = "false (0)"

